# TARGET ENTITY: Bcl-2 protein (Recombinant Human Bcl-2 Protein) (Homo sapiens)
# Construct: purchased Novus NBP2-34889
# PROTOCOL TEXT: Binding evaluation of mixture library compounds to Bcl-2 using AS-MS (affinity selection mass spectrometry)
# ASSAY SETUP: n = 1
Reported ASMS ratio (%) values for the following compounds.
Your answer should be a plain number; it is taken to be in %.

- CCOc1cncc(-c2ccccc2CN2CCN(c3ccc(C(=O)NS(=O)(=O)C(C)(C)C)nn3)CC2)c1 [B2L072-01]: −10.7
- CCOc1cccc(-c2ccc(CN3CCN(c4ccc(C(=O)NS(=O)(=O)CCC(F)(F)F)cc4)CC3)c(OC)c2)c1 [B2N053-01]: 0.0
- CCOc1cccc(-c2ccc(C(=O)N3CCN(c4ccc(C(=O)NS(=O)(=O)c5ccc(NCCSc6ccccc6)c(C(F)(F)F)c5)cc4)CC3)cc2C)c1 [B2R025-01]: −1.0

Note: attention shifts to another entry.
Write down ASMS ratio (%) measured for item CCOc1cncc(-c2cc(CN3CCN(c4ccc(C(=O)NS(=O)(=O)C(C)(C)C)nn4)CC3)cc(C(F)(F)F)c2)c1 [B2L088-01]
0.0

----------
# TARGET ENTITY: Bcl-2 protein (Recombinant Human Bcl-2 Protein) (Homo sapiens, UniProt P10415)
# Construct: purchased Novus NBP2-34889
# Sequence (P10415 whole entry): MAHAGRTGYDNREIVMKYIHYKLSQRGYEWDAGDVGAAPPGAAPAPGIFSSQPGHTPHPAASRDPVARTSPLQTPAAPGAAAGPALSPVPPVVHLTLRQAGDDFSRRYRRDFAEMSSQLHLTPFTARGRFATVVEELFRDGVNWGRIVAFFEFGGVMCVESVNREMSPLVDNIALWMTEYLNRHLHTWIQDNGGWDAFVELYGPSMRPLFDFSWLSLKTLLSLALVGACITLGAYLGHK
# PROTOCOL TEXT: Binding evaluation of mixture library compounds to Bcl-2 using AS-MS (affinity selection mass spectrometry)
# ASSAY SETUP: AS-MS, mixture of 1200 compounds, Bcl-2; ASMS Ratio(%)=(A−C)/B×100; replicate n = 2
QUANTITY NAME: ASMS ratio (%) n = 2
Just the number please, in %, no unit attached.

Would you please look over these solved cases?
- CCOc1cccc(-c2ccc(C(C)N3CCN(c4ccc(C(=O)NCC56CC7CC(CC(C7)C5)C6)cc4)CC3)c(F)c2)c1 (stereo not shown): −0.9
- CCOc1cccc(-c2ccc(C(=O)N3CCN(c4ccc(C(=O)NCC(F)(F)F)cc4)CC3)cc2F)c1: −3.6
- CCOc1cccc(-c2ccc(CN3CCN(c4ccc(C(=O)NCC(F)(F)F)cc4)CC3)cc2F)c1: 2.0
- CCOc1cncc(-c2cc(C(=O)N3CCN(c4ccc(C(=O)NCC56CC7CC(CC(C7)C5)C6)cc4)CC3)cc(C(C)(C)C)c2)c1: −6.4
- CCOc1cccc(C#Cc2cc(C(=O)N3CCN(c4ccc(C(=O)NCC(F)(F)F)nn4)CC3)cc(C(F)(F)F)c2)c1: 0.0

Give ASMS ratio (%) n = 2 only, for CCOc1cncc(-c2cc(CN3CCN(c4ccc(C(=O)NCC(F)(F)F)cc4)CC3)cc(OC(C)C)c2)c1 , using Bcl-2 protein (Recombinant Human Bcl-2 Protein) (Homo sapiens, UniProt P10415) data.
0.1

Fetch value of ASMS ratio (%) n = 2 on Bcl-2 protein (Recombinant Human Bcl-2 Protein) (Homo sapiens, UniProt P10415) for CCOc1cccc(-c2csc(CN3CCN(c4ccc(C(=O)NCC56CC7CC(CC(C7)C5)C6)cc4)CC3)c2)c1 .
−7.8

----------
Overview of reported ASMS ratio (%) n = 2 across a group of compounds:
# TARGET ENTITY: Bcl-2 protein (Recombinant Human Bcl-2 Protein) (Homo sapiens, UniProt P10415)
# Construct: purchased Novus NBP2-34889
# PROTOCOL TEXT: Binding evaluation of mixture library compounds to Bcl-2 using AS-MS (affinity selection mass spectrometry)
# ASSAY SETUP: AS-MS, mixture library, Bcl-2; replicate n = 2; ASMS Ratio(%)=(A−C)/B×100
Note: unit % is implicit; provide only the numeric part.

- CCOc1cccc(-c2ccc(C(=O)N3CCN(c4ccc(C(=O)NS(=O)(=O)CC56CC7CC(CC(C7)C5)C6)cc4)CC3)cc2F)c1: −3.9
- CCOc1cccc(C#Cc2ccccc2CN2CCN(c3ccc(C(=O)N(CC)CC)nn3)CC2)c1: 0.0
- CCOc1cccc(-c2cc(C(=O)N3CCN(c4ccc(C(=O)NS(=O)(=O)CC56CC7CC(CC(C7)C5)C6)nn4)CC3)cc(C(C)(C)C)c2)c1: 9.7
- CCOc1cncc(-c2ccc(CN3CCN(c4ccc(C(=O)NS(=O)(=O)c5ccc(NCCSc6ccccc6)c([N+](=O)[O-])c5)nn4)CC3)c3ccccc23)c1: 4.8

Give reported ASMS ratio (%) n = 2 value for CCOc1cccc(-c2ccccc2CCC(=O)N2CCN(c3ccc(C(=O)NS(=O)(=O)CC45CC6CC(CC(C6)C4)C5)nn3)CC2)c1
0.3

Using the record for CCOc1cncc(C#Cc2cncc(C(=O)N3CCN(c4ccc(C(=O)NS(C)(=O)=O)cc4)CC3)c2)c1 , state its measured ASMS ratio (%) n = 2.
−1.6

----------
Readings of ASMS ratio (%) n = 1 for the listed compounds
# TARGET ENTITY: Bcl-2 protein (Recombinant Human Bcl-2 Protein) (Homo sapiens, UniProt P10415)
# Construct: purchased Novus NBP2-34889
# PROTOCOL TEXT: Binding evaluation of mixture library compounds to Bcl-2 using AS-MS (affinity selection mass spectrometry)
# ASSAY SETUP: AS-MS on the mixture of 1200 library compounds; ASMS Ratio(%)=(A−C)/B×100; replicate n = 1
Give just the number in %; leave the unit off.

Supply reported ASMS ratio (%) n = 1 belonging to this compound: CCOc1cccc(-c2ccc(CN3CCN(c4ccc(C(=O)N(C)CC56CC7CC(CC(C7)C5)C6)nn4)CC3)cc2F)c1
4.1

Dear colleague, please send me the reported ASMS ratio (%) n = 1 for CCOc1cncc(-c2cc(OC)c(CN3CCN(c4ccc(C(=O)N(C)CC56CC7CC(CC(C7)C5)C6)cc4)CC3)c(OC)c2)c1 when you can.
0.9

Note down ASMS ratio (%) n = 1 recorded for CCOc1cccc(-c2ccc(C(=O)N3CCN(c4ccc(C(=O)N(CC)CC)cc4)CC3)c3ccccc23)c1
4.1

----------
# TARGET ENTITY: human Bcl-2 protein (Homo sapiens)
# Construct: purchased Novus Biologicals
# Sequence (P10415 whole entry): as above
# PROTOCOL TEXT: Binding evaluation of compounds to Bcl-2 by surface plasmon resonance (SPR)
# ASSAY SETUP: Biacore T200, biotinylated human Bcl-2 immobilized on Sensor Chip SA, 15° C., compounds found by AS-MS evaluation of synthesized library, read-out: Equilibrium dissociation constant KD
Overview of recorded Kd for various compounds
Unit nM implied. Number only.

• CCOc1cncc(-c2ccc(CN3CCN(c4ccc(C(=O)NS(=O)(=O)c5ccc(NCCSc6ccccc6)c([N+](=O)[O-])c5)cc4)CC3)c(OC)c2)c1 [B2Q054-01] = 1270

Give Kd for this entry on human Bcl-2 protein (Homo sapiens): CCOc1cccc(-c2ccc(CN3CCN(c4ccc(C(=O)NS(=O)(=O)c5ccc(NCCSc6ccccc6)c([N+](=O)[O-])c5)cc4)CC3)cc2C)c1 [B2Q047-01]
700

State Kd (human Bcl-2 protein (Homo sapiens)) of CCOc1cncc(-c2ccc(CN3CCN(c4ccc(C(=O)NS(=O)(=O)c5ccc(NCCSc6ccccc6)c([N+](=O)[O-])c5)cc4)CC3)c3ccccc23)c1 [B2Q066-01] .
950

Give Kd for this entry on human Bcl-2 protein (Homo sapiens): CCOc1cncc(-c2ccc(CN3CCN(c4ccc(C(=O)NS(=O)(=O)c5ccc(NCCSc6ccccc6)c([N+](=O)[O-])c5)cc4)CC3)cc2C)c1 [B2Q048-01]
480

----------
# TARGET ENTITY: Bcl-2 protein (Recombinant Human Bcl-2 Protein) (Homo sapiens)
# Construct: purchased Novus NBP2-34889
# PROTOCOL TEXT: Binding evaluation of mixture library compounds to Bcl-2 using AS-MS (affinity selection mass spectrometry)
# ASSAY SETUP: AS-MS, mixture of 1200 compounds, Bcl-2; ASMS Ratio(%)=(A−C)/B×100; replicate n = 1
# ASMS ratio (%) n = 1 per entry
Give the quantity in %, number only.

- CCOc1cccc(-c2cc(C(=O)N3CCN(c4ccc(C(=O)NCC56CC7CC(CC(C7)C5)C6)cc4)CC3)cc(C(C)(C)C)c2)c1 [B1A037-01]: 3.3

Specify ASMS ratio (%) n = 1 for CCOc1cccc(C#Cc2cc(C(=O)N3CCN(c4ccc(C(=O)NCC(F)(F)F)cc4)CC3)cc(C(F)(F)F)c2)c1 [B1K041-01] and stop.
0.0

Quick one: give measured ASMS ratio (%) n = 1 for CCOc1cccc(C#Cc2ccccc2C(=O)N2CCN(c3ccc(C(=O)NCC45CC6CC(CC(C6)C4)C5)cc3)CC2)c1 [B1A029-01]
−22.3

Query ASMS ratio (%) n = 1 for CCOc1cncc(-c2ccc(CN3CCN(c4ccc(C(=O)NCC(F)(F)F)nn4)CC3)c3ccccc23)c1 [B1K092-01]
4.1

# return recorded ASMS ratio (%) n = 1 for input CCOc1cncc(-c2cc(CN3CCN(c4ccc(C(=O)NCC56CC7CC(CC(C7)C5)C6)cc4)CC3)cc(C(F)(F)F)c2)c1 [B1A062-01]
−0.3

Tell me measured ASMS ratio (%) n = 1 for CCOc1cncc(-c2csc(C(=O)N3CCN(c4ccc(C(=O)NCC(F)(F)F)cc4)CC3)c2)c1 [B1K024-01] please.
0.0

Answer with reported ASMS ratio (%) n = 1 of CCOc1cncc(-c2ccccc2CN2CCN(c3ccc(C(=O)NCC45CC6CC(CC(C6)C4)C5)nn3)CC2)c1 [B1A072-01]
3.9

Where these numbers come from: patent US20240132431A1
